Literature Ki values, system: Tyrosine-protein kinase JAK2 (Homo sapiens).

Use these answered entries as a reference point.
compound=COCC(=O)Nc1nc(N[C@@H](C)c2ccc(F)cc2F)cc(-c2cnn3cccnc23)n1 result="< 10 nM"
compound=CO[C@H]1CN(c2ccn(-c3cc(-c4c(F)cccc4C#N)nc4c3C(=O)NC4)n2)CC[C@H]1OC result="10 to 100 nM"
compound=c1nc(-c2cn[nH]c2)c2cc[nH]c2n1 result="100 to 500 nM"
compound=Cc1cc(Nc2cc(N3CCC3)nc(Sc3ccc(NC(=O)c4ccccc4Cl)nc3)n2)[nH]n1 result="660 nM"
compound=Cc1cc(Nc2cc(N3CC(F)(C4CC4)C3)nc(Sc3ccc(NC(=O)CC(F)(F)F)cc3)n2)[nH]n1 result="11 nM"

Query :: I am curious: what Ki value has been reported for Cc1c[nH]c2ncnc(-c3cnn(CCC(C)C)c3)c12 ?
Result :: < 100 nM

Query :: Try C[C@H](Nc1cc(-c2cnn3cccnc23)nc(OCCN2CCOCC2)n1)c1ccc(F)cc1F next.
Result :: < 10 nM

Query :: Try C[C@H](O)CNC(=O)c1cc(-c2ncnc3[nH]ccc23)c[nH]1 next.
Result :: < 100 nM

Query :: Try c1ccc(C2Nc3ccccc3-c3ncnc4[nH]cc2c34)cc1 (centres unmarked) next.
Result :: > 2500 nM
